Provide the reported CTG-3D luminescence at 96 h of each item.
tested on: HCI-023 (organoid from a triple-negative breast cancer xenograft); assay: CTG-3D luminescence at 96 h relative to day-0 seeding control (ratio to day 0); higher = more growth / less cytotoxicity; PDxO 3D drug screen, 96 h, CTG-3D normalised to day-0 seeding control.; settings: 1 µM; days in culture: 111
Response field accepts a number only; no unit should be typed.

Please give measured CTG-3D luminescence at 96 h of the following entry: NC1(C(=O)N[C@@H](CCO)c2ccc(Cl)cc2)CCN(c2nc[nH]c3nccc2-3)CC1
0.434

Please give measured CTG-3D luminescence at 96 h of the following entry: O=C(c1ccc(F)c(F)c1Nc1ccc(I)cc1F)N1CC(O)([C@@H]2CCCCN2)C1
0.75

Please give measured CTG-3D luminescence at 96 h of the following entry: COc1cc2c(Oc3ccc4[nH]c(C)cc4c3F)ncnc2cc1OCCCN1CCCC1
0.911

Please give measured CTG-3D luminescence at 96 h of the following entry: Cc1nc(-c2cn3c(n2)-c2ccc(-c4cnn(C(C)(C)C(N)=O)c4)cc2OCC3)n(C(C)C)n1
0.707

Please give measured CTG-3D luminescence at 96 h of the following entry: CNC(=O)c1cccc(-c2ccc3c(N4CCOC[C@@H]4C)nc(N4CCOC[C@@H]4C)nc3n2)c1
0.468

Please give measured CTG-3D luminescence at 96 h of the following entry: NC(=O)Nc1cc(-c2cccc(F)c2)sc1C(=O)N[C@H]1CCCNC1
0.201

Please give measured CTG-3D luminescence at 96 h of the following entry: CN(Cc1cnc2nc(N)nc(N)c2n1)c1ccc(C(=O)N[C@@H](CCC(=O)O)C(=O)O)cc1 [methotrexate]
0.83

Please give measured CTG-3D luminescence at 96 h of the following entry: C[C@]12CC[C@@H]3c4ccc(O)cc4C[C@@H](CCCCCCCCC[S+]([O-])CCCC(F)(F)C(F)(F)F)[C@H]3[C@@H]1CC[C@@H]2O (some centres undefined)
0.963

Please give measured CTG-3D luminescence at 96 h of the following entry: C=CC(=O)N1CCC[C@@H](n2nc(-c3ccc(Oc4ccccc4)cc3)c3c(N)ncnc32)C1
1.03
